assay: PAMPA-BBB passive membrane permeability; conditions: PAMPA, pH 7.4
EXPERIMENTAL_ENDPOINT: Papp at 18 h (×10⁻⁶ cm/s)

| COMPOUND | REPORTED_RESULT |
| --- | --- |
| CC(C)[C@H]1C(=O)O[C@H](C(C)C)C(=O)N(C)[C@@H](C(C)C)C(=O)O[C@H](C(C)C)C(=O)N(C)[C@@H](C(C)C)C(=O)O[C@H](C(C)C)C(=O)N1C [EnB] | 8.3 |
